Measured pKd by item
# studySystem: T1, human Notch3 NRR recombinant protein (Notch3 NRR_Avi_His tag) (human)
# T1 construct: Purified from CHO-PACE cells; the entry includes the C-terminal Avi and His6 tag
# T1 chain: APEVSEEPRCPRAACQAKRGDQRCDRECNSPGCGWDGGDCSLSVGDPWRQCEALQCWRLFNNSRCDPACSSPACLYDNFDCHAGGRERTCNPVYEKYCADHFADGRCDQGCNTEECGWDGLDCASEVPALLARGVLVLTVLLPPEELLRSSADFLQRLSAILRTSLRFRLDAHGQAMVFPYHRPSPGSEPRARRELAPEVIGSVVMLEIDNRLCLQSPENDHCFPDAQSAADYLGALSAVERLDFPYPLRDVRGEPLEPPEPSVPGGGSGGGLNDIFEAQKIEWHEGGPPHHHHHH
# assayInfo: SPR (Biacore T100), antibody captured on anti-human IgG-Fc, Notch3 NRR as analyte, 1:1 Langmuir fit
pKd: −log10 of the molar value.

binder	pKd
hu28 (humanized r28 variant VH1.0/VL1.0) (antibody, human IgG1, kappa, V domains shown, Human IgG1/kappa; also called hu28 VH1.0/VL1.0; hu28 VH1.0/V1.0) VH: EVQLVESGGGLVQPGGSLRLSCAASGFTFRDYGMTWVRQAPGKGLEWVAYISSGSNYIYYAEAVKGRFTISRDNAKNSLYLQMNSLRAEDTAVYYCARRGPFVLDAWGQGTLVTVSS VL: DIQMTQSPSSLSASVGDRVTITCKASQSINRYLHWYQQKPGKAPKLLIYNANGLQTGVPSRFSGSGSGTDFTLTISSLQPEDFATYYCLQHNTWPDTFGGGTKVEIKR	9.05
rat-human chimeric antibody 75 (ch75) (antibody, V domains shown, also called ch75-hIgG1; ch75-hulgG1) VH: QVKLLQSGAALVKPGASVKMSCKASGYAFTDYWVTWVKQSHGKSLEWIGEISPNSGGTNFNEKFKGKATLTVDKSTSTAYMELSRLTSEDSAIYYCTRGEIRYNWFAYWGQGTLVTVSS VL: NIVMTQSPKSMSISVGDRVTMNCKASQNVGNNIAWYQQKPGQSPKLLIYYASNRYTGVPDRFTGGGYGTDFTLTINSMQAEDAAFYYCQRLYNSPFTFGSGTKLEIK	7.76
hu75 (humanized r75 variant VH1.9/VL1.3) (antibody, human IgG1, kappa, V domains shown, Human IgG1/kappa; also called hu75 VH1.9/VL1.3; hu75 VH1.9/V1.3) VH: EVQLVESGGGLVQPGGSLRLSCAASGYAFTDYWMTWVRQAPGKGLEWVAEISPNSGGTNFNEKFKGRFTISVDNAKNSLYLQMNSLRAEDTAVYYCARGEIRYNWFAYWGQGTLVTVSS VL: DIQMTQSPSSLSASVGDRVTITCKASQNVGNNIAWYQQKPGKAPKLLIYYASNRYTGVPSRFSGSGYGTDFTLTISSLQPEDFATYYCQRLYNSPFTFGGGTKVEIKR	8.01
rat-human chimeric antibody 28 (ch28) (antibody, V domains shown, also called ch28-hIgG1; ch28-hulgG1) VH: EVQLVESGGGLVQPGRSLTLSCVASGFTFRDYGMTWIRQAPGKGLTWVAYISSGSNYIYYAEAVKGRFTISRDNAKNTLYLQMTSLRSEDTALYFCTRRGPFVLDAWGQGASVTVSS VL: DIQMTQSPSFLSASVGDRVTINCKASQSINRYLHWFQQKLGEAPKLLIYNANGLQTGIPSRFSGSGSGTDFTLTISSLQSEDVATYFCLQHNTWPDTFGAGTKLELK	9.21

# credit: patent US20140127211A1
